Catalogue of Kd values
- Test Target: T1, Biotinylated human TSLP (hTSLP(29-159)-Avi) (human, biotinylated (C-terminal Avi-tag))
- T1 construct: also called thymic stromal lymphopoietin
- T1 sequence (chain, as listed by the source limits assumed): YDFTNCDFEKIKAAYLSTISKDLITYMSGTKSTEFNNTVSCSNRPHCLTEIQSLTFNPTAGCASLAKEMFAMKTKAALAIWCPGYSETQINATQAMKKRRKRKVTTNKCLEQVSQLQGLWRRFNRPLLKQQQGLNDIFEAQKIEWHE
- Method: SPR, biotinylated hTSLP on streptavidin chip, peptide injected
*1 amine or outer side, *2 acyl side, *3 side chain or, on linkers, in order; H or OH if unused. Bridges are numbered along the chain shown (N, C = ends). Where no end group is shown, it is not given here. TATA = O=C(CC[*:1])N1CN(C(=O)CC[*:2])CN(C(=O)CC[*:3])C1
Measured Parameter: Kd

> print(dat)
                                      binder  result.value
 1  CDWHWEYDCWLSCGDMSVS (linker 1-9-13 via TATA; not fully specified (C-terminus)) [Example 222]        450 nM
 2  ACDWNWTYDCWLDCAPI (linker 2-10-14 via TATA) [Example 206]        430 nM
 3  Ac-CDWHWEYDCWLSC (linker 1-9-13 via TATA; not fully specified (C-terminus)) [Example 218]       2000 nM
 4  ACDWHWEYDCWLSCDPSSKQA (linker 2-10-14 via TATA) [Example 212]        250 nM
 5  ACDWDWDYDCWLPCFAE (linker 2-10-14 via TATA; not fully specified (C-terminus)) [Example 208]        340 nM
 6  AETCKWMWEYDCWLSCA (linker 4-12-16 via TATA) [Example 204]        100 nM
 7  ACSLDPWSCHNWWTCA (linker 2-9-15 via TATA; not fully specified (C-terminus)) [Example 229]       9900 nM
 8  DEQHHECDWHWEYDCWLSCA (linker 7-15-19 via TATA; not fully specified (C-terminus)) [Example 209]        910 nM
 9  ADGCEWNWAYDCWLGCA (linker 4-12-16 via TATA) [Example 201]        170 nM
10  SNATKQCDWHWEYDCWLSCA (linker 7-15-19 via TATA; not fully specified (C-terminus)) [Example 210]        180 nM
11  CDWHWEYDCWLSCEPETGQ (linker 1-9-13 via TATA; not fully specified (C-terminus)) [Example 216]        320 nM

These entries and their values trace back to patent US20220363718A1.
